Assay: Kinetic solubility of compound at pH 2
Format: physicochemical
Conditions: buffer, read-out: Kinetic_solubility
QUANTITY: solubility kinetic (µM)
Value expressed in µM; do not type the unit.

Field request: solubility kinetic | item: CC(=O)Nc1ncc(CN2CCC3(CCN(c4cc(C)nc5ccccc45)C3)C2)s1 (racemic)
87

----------
Recorded IC50 by entry
Target: Protein O-GlcNAcase (Homo sapiens)
Sequence (O60502 whole entry, looked up, change not shown): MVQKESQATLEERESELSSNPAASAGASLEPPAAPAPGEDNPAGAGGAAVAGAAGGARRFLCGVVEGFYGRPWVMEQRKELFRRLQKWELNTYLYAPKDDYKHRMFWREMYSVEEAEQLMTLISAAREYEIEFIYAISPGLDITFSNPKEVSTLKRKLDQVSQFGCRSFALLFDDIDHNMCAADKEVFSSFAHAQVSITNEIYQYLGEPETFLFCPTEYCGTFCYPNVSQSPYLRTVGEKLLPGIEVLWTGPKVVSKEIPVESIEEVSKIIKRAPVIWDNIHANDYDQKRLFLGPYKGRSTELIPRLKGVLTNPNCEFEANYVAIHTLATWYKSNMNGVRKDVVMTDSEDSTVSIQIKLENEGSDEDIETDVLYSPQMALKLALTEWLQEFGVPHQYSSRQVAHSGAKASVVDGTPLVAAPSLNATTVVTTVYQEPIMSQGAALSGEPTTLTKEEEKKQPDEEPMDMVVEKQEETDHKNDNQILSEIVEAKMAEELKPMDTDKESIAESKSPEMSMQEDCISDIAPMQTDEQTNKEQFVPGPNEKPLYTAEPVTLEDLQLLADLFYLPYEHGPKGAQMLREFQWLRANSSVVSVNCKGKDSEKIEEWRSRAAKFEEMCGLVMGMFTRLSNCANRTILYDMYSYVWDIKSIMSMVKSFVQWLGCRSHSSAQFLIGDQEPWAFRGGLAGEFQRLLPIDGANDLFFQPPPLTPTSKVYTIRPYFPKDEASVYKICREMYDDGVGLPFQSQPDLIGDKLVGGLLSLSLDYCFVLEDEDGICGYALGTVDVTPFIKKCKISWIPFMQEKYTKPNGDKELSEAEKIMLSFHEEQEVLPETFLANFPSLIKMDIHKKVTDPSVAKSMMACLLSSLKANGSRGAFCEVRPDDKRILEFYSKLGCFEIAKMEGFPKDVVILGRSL
Assay: Inhibition of OGA in HEK293 cells induced with human Tau […] mutant assessed as increase in O-GlcNAcylated protein levels measured after 6 hrs by Hoechst 33342 dye based fluorescence analysis

>>> recorded_result("Cc1cc(N2CCC3(CCN(Cc4ccc5sc(C)nc5c4)C3)C2)n2ncnc2n1 (racemic)")
"> 1 µM"

Field request: IC50 | item: Cc1cc(N2CCC3(CCNC3)C2)n2ncnc2n1 (racemic)
> 10 µM

Field request: IC50 | item: Cc1cc(N2CCC3(CCN(Cc4ccc5c(c4)OCO5)C3)C2)n2ncnc2n1 (centres undefined)
> 1 µM

Field request: IC50 | item: Cc1cc(N2CCC3(CCN(Cc4ccc5nccnc5c4)C3)C2)n2ncnc2n1 (racemic)
> 10 µM
